- protocol_description: Dog pharmacokinetic study, single oral HM04 fumarate salt 3, 10, 30 mg/kg (Example 10)
- Format: in vivo, male Beagle dogs
- stated_conditions: male, Beagle, plasma, 10 mg/kg oral, 0 hours (pre-dose), n=4
parameter_measured: concentration at 0 h (ng/mL)
Write the number in ng/mL without appending the unit.

Request: Which concentration at 0 h value belongs to CN1CCC(N(C)C(=O)N[C@H](c2ccc(-c3cnccn3)c(Cl)c2Cl)C(F)(F)F)CC1.O=C(O)/C=C/C(=O)O [HM04 fumarate salt] ?
Result: 2.15

====

- protocol_description: Dog pharmacokinetic study, single oral HM04 fumarate salt 3, 10, 30 mg/kg (Example 10)
- Type: in vivo, male Beagle dogs
- stated_conditions: male, Beagle, plasma, 10 mg/kg oral, 1 hour, n=4
parameter_measured: concentration at 1 h (ng/mL)
Respond numerically; units are ng/mL and should not be typed.

Request: Which measured concentration at 1 h value corresponds to CN1CCC(N(C)C(=O)N[C@H](c2ccc(-c3cnccn3)c(Cl)c2Cl)C(F)(F)F)CC1.O=C(O)/C=C/C(=O)O [HM04 fumarate salt] ?
Result: 1510

====

- protocol_description: Dog pharmacokinetic study, single oral HM04 fumarate salt 3, 10, 30 mg/kg (Example 10)
- Assay type: in vivo, male Beagle dogs
- stated_conditions: male, Beagle, plasma, 3 mg/kg oral, 2 hours, N = 3 (Dog 3 excluded as outlier)
parameter_measured: concentration at 2 h (ng/mL)
// units = ng/mL; emit number, no label

Request: Quick check: concentration at 2 h of CN1CCC(N(C)C(=O)N[C@H](c2ccc(-c3cnccn3)c(Cl)c2Cl)C(F)(F)F)CC1.O=C(O)/C=C/C(=O)O [HM04 fumarate salt] ?
Result: 287

====

- protocol_description: Rat pharmacokinetic study, single oral HM04 fumarate salt 3, 10, 30 mg/kg (Example 10)
- Assay type: in vivo, male Sprague Dawley rats
- stated_conditions: male, Sprague Dawley, plasma, 10 mg/kg oral, 0.50 hours, n=4
parameter_measured: concentration at 0.5 h (ng/mL)
Numbers only here, please. The scale is ng/mL.

Request: Recorded concentration at 0.5 h for CN1CCC(N(C)C(=O)N[C@H](c2ccc(-c3cnccn3)c(Cl)c2Cl)C(F)(F)F)CC1.O=C(O)/C=C/C(=O)O [HM04 fumarate salt] , please?
Result: 548

====

- protocol_description: Dog pharmacokinetic study, single oral HM04 fumarate salt 3, 10, 30 mg/kg (Example 10)
- Type: in vivo, male Beagle dogs
- stated_conditions: male, Beagle, plasma, 3 mg/kg oral vs 3 mg/kg intravenous, individual AUC∞ ratios
- Experimental: The pharmacokinetics of HM04 in plasma after single oral administration of HM04 fumarate salt to 6-week old male Sprague Dawley rats and male Beagle dogs (1-5 years of age) was investigated. Test formulations of 0.6 mg/mL, 2 mg/mL, and 6 mg/mL HM04 fumarate salt (based on weight of the free base) were prepared in 5% glucose solution. […] Plasma HM04 concentrations were measured by LC-MS/MS following protein precipitation in the 96-well plate format. […]
parameter_measured: bioavailability (%)
Kindly provide the numeric value in % only, without the unit symbol.

Request: Which bioavailability reading was recorded for the compound CN1CCC(N(C)C(=O)N[C@H](c2ccc(-c3cnccn3)c(Cl)c2Cl)C(F)(F)F)CC1.O=C(O)/C=C/C(=O)O [HM04 fumarate salt] ?
Result: 55.6

====

- protocol_description: Rat pharmacokinetic study, single oral HM04 fumarate salt 3, 10, 30 mg/kg (Example 10)
- Type: in vivo, male Sprague Dawley rats
- stated_conditions: male, Sprague Dawley, plasma, 3 mg/kg oral, 0.25 hours, n=4
parameter_measured: concentration at 0.25 h
Write the numeric value and follow it with the unit.

Request: Can you share its concentration at 0.25 h? I mean this compound: CN1CCC(N(C)C(=O)N[C@H](c2ccc(-c3cnccn3)c(Cl)c2Cl)C(F)(F)F)CC1.O=C(O)/C=C/C(=O)O [HM04 fumarate salt]
Result: 34.7 ng/mL

====

- protocol_description: Rat pharmacokinetic study, single oral HM04 fumarate salt 3, 10, 30 mg/kg (Example 10)
- Assay type: in vivo, male Sprague Dawley rats
- stated_conditions: male, Sprague Dawley, plasma, 3 mg/kg oral, 2 hours, n=4
parameter_measured: concentration at 2 h (ng/mL)
Field format: number, assumed ng/mL, no unit text.

Request: Fill in: concentration at 2 h of CN1CCC(N(C)C(=O)N[C@H](c2ccc(-c3cnccn3)c(Cl)c2Cl)C(F)(F)F)CC1.O=C(O)/C=C/C(=O)O [HM04 fumarate salt] is ___
Result: 150

====

- protocol_description: Dog pharmacokinetic study, single oral HM04 fumarate salt 3, 10, 30 mg/kg (Example 10)
- Assay type: in vivo, male Beagle dogs
- stated_conditions: male, Beagle, plasma, intravenous, range, read-out: half-life after intravenous administration
parameter_measured: half-life

Request: Requested read-out: half-life. Entry: CN1CCC(N(C)C(=O)N[C@H](c2ccc(-c3cnccn3)c(Cl)c2Cl)C(F)(F)F)CC1.O=C(O)/C=C/C(=O)O [HM04 fumarate salt]
Result: 240 to 300 min

====

- system: human GHSR1a receptor (Homo sapiens, UniProt Q92847)
- Sequence (Q92847 whole entry): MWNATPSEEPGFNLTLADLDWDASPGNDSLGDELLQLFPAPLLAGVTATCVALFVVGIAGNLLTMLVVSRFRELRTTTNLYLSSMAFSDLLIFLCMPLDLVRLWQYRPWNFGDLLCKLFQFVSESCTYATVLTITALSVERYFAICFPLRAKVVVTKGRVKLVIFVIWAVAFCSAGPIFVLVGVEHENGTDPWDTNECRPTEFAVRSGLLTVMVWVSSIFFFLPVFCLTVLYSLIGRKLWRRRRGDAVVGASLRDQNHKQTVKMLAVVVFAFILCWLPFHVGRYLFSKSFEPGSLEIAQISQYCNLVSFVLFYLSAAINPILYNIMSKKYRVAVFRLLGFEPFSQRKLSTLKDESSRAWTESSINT
- protocol_description: Antagonist FLIPR assay in HEK293 cells
- stated_conditions: HEK293 cells expressing human GHSR1a, in duplicate, HM04 tested as fumarate salt
parameter_measured: IC50 (nM)
Write the value in nM as a bare number.

Request: IC50 for CN1CCC(N(C)C(=O)N[C@H](c2ccc(-c3cnccn3)c(Cl)c2Cl)C(F)(F)F)CC1 [HM04] ?
Result: 7.31

====

- protocol_description: Dog pharmacokinetic study, single oral HM04 fumarate salt 3, 10, 30 mg/kg (Example 10)
- Type: in vivo, male Beagle dogs
- stated_conditions: male, Beagle, plasma, 30 mg/kg oral, 24 hours, n=4
parameter_measured: concentration at 24 h (ng/mL)
Just the number in ng/mL, nothing appended.

Request: Request the reported concentration at 24 h associated with CN1CCC(N(C)C(=O)N[C@H](c2ccc(-c3cnccn3)c(Cl)c2Cl)C(F)(F)F)CC1.O=C(O)/C=C/C(=O)O [HM04 fumarate salt]
Result: 560

====

- protocol_description: Dog pharmacokinetic study, single oral HM04 fumarate salt 3, 10, 30 mg/kg (Example 10)
- Format: in vivo, male Beagle dogs
- stated_conditions: male, Beagle, plasma, 10 mg/kg oral, n=4, read-out: t1/2 (converted)
parameter_measured: half-life (h)
Give the quantity in h, number only.

Request: Given CN1CCC(N(C)C(=O)N[C@H](c2ccc(-c3cnccn3)c(Cl)c2Cl)C(F)(F)F)CC1.O=C(O)/C=C/C(=O)O [HM04 fumarate salt] , state its recorded half-life.
Result: 4.93

====

- protocol_description: Rat pharmacokinetic study, single oral HM04 fumarate salt 3, 10, 30 mg/kg (Example 10)
- Assay type: in vivo, male Sprague Dawley rats
- stated_conditions: male, Sprague Dawley, plasma, 30 mg/kg oral, n=4
parameter_measured: Tmax (h)
Numbers only; they are read as h.

Request: Tmax lookup needed for CN1CCC(N(C)C(=O)N[C@H](c2ccc(-c3cnccn3)c(Cl)c2Cl)C(F)(F)F)CC1.O=C(O)/C=C/C(=O)O [HM04 fumarate salt] , thanks.
Result: 1.75

====

- protocol_description: Estimated aqueous solubility
- Assay type: physicochemical
- stated_conditions: aqueous (water)
parameter_measured: solubility

Request: Consider the molecule CN1CCC(N(C)C(=O)N[C@H](c2ccc(-c3cnccn3)c(Cl)c2Cl)C(F)(F)F)CC1 [HM04 free base] and give its measured solubility.
Result: < 2000 µg/mL

====

- protocol_description: Dog pharmacokinetic study, HM04 free base vs HM04 fumarate salt (Example 9)
- Assay type: in vivo, male Beagle dogs
- stated_conditions: male, Beagle, plasma, 2 mg/kg oral, mean ± S.D., n=3
- Description: The pharmacokinetics of HM04 in plasma of male Beagle dogs dosed with a single oral administration of 2 mg/kg HM04 formulated in a solution of 10% DMAC, 6% Solutol, and 84% PBS using either the HM04 free base or HM04 fumarate salt were compared. […] Bioavailability was calculated from a dose normalized ratio of the oral mean AUC to the intravenous mean AUC (AUCpo/AUCiv×Doseiv/Dosepo).
parameter_measured: AUC(0-t) (ng·h/mL)
Use ng·h/mL as the unit, but write only the number.

Request: Fill in: AUC(0-t) of CN1CCC(N(C)C(=O)N[C@H](c2ccc(-c3cnccn3)c(Cl)c2Cl)C(F)(F)F)CC1.O=C(O)/C=C/C(=O)O [HM04 fumarate salt] is ___
Result: 1850

Next up:
Request: Any idea what its AUC(0-t) is? The molecule is CN1CCC(N(C)C(=O)N[C@H](c2ccc(-c3cnccn3)c(Cl)c2Cl)C(F)(F)F)CC1 [HM04 free base]
Result: 929

====

- protocol_description: Dog pharmacokinetic study, HM04 free base vs HM04 fumarate salt (Example 9)
- Type: in vivo, male Beagle dogs
- stated_conditions: male, Beagle, plasma, po, 2 mg/kg, 2 mg/kg oral, 24 hours, mean ± S.D., n=3
parameter_measured: concentration at 24 h (ng/mL)
API: value field is a number in ng/mL; no unit string.

Request: # input compound: CN1CCC(N(C)C(=O)N[C@H](c2ccc(-c3cnccn3)c(Cl)c2Cl)C(F)(F)F)CC1 [HM04 free base] ; wanted: its concentration at 24 h
Result: 6.61
